Where do these numbers come from? They come from ChEMBL document CHEMBL4396897.

# Target System: DCN1-like protein 1 (Homo sapiens, UniProt Q96GG9)
# Sequence (Q96GG9 whole entry, the tested form may be a part): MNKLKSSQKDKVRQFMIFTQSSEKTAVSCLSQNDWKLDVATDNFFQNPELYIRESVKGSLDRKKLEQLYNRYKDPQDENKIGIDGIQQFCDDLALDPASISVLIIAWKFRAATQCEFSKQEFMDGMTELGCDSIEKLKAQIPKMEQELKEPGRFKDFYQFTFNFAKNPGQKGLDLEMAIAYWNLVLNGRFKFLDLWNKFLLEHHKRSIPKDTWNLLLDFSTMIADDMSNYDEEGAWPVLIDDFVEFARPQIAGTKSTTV
# Protocol Summary: Binding affinity to N-terminal His6-tagged recombinant human DCN1 expressed in Escherichia coli BL21-AI assessed as reduction in DCN1-FAM-labelled N-terminal acetylated UBE2M (1 to 12 residues) protein-protein interaction after 30 mins by fluorescence polarization competitive binding assay
Quantity Measured: pIC50
// pIC50 here means minus log10 of the molar concentration (mol/L)

Some molecules with recorded pIC50:
>  <Smiles Input>
C#CCSc1nc(Sc2nnnn2C)c(C#N)c(-c2ccc(Cl)c(Cl)c2)n1

>  <pIC50>
6.03

$$$$
>  <Smiles Input>
C#CCSc1nc(Sc2nnnn2C)c(C#N)c(-c2cccc(Cl)c2)n1

>  <pIC50>
6.19

$$$$
>  <Smiles Input>
C#CCSc1nc(Sc2nnnn2C)c(C#N)c(-c2cccc(OC)c2)n1

>  <pIC50>
5.50

$$$$

Then there is this molecule:
Ask: Fill in the blank: the reported pIC50 of C#CCSc1nc(Sc2nccs2)c(C#N)c(-c2ccc(Cl)cc2)n1 is ____.
Result: 7.44

====

# Target System: DCN1-like protein 1 (Homo sapiens)
# Protocol Summary: Binding affinity to N-terminal His6-tagged recombinant human DCN1 expressed in Escherichia coli BL21-AI assessed as reduction in DCN1-FAM-labelled N-terminal acetylated UBE2M (1 to 12 residues) protein-protein interaction after 30 mins by fluorescence polarization competitive binding assay
pIC50: recorded values
// pIC50 here means minus log10 of the molar concentration (mol/L)

>  <Smiles Input>
C#CCSc1nc(Sc2ccc(N)s2)c(C#N)c(-c2cc(OC)c(OC)c(OC)c2)n1

>  <Recorded Measurement>
6.71

$$$$

Ask: Fill in the blank: the reported pIC50 of C#CCSc1nc(Sc2nnnn2CCN(C)C)c(C#N)c(-c2ccc(C)cc2)n1 is ____.
Result: 6.96

Ask: Fill in the blank: the reported pIC50 of C#CCSc1nc(Sc2nccs2)c(C#N)c(-c2ccncc2)n1 is ____.
Result: 5.83

Ask: Fill in the blank: the reported pIC50 of C#CCSc1nc(Sc2nnnn2CCN(C)C)c(C#N)c(-c2ccc(Cl)cc2)n1 is ____.
Result: 7.20

Ask: Fill in the blank: the reported pIC50 of C#CCSc1nc(Sc2nnnn2C)c(C#N)c(-c2cc(OC)c(OC)c(OC)c2)n1 is ____.
Result: 6.44

Ask: Fill in the blank: the reported pIC50 of C#CCSc1nc(Sc2nnnn2CCN(C)C)c(C#N)c(-c2ccc3oc(=O)ccc3c2)n1 is ____.
Result: 6.18

Ask: Fill in the blank: the reported pIC50 of C#CCSc1nc(Sc2nccs2)c(C#N)c(-c2ccc3oc(=O)ccc3c2)n1 is ____.
Result: 6.10

Ask: Fill in the blank: the reported pIC50 of C#CCSc1nc(Sc2nnnn2C)c(C#N)c(-c2ccc(C(C)C)cc2)n1 is ____.
Result: 5.96

Ask: Fill in the blank: the reported pIC50 of C#CCSc1nc(Sc2nccs2)c(C#N)c(-c2cccc(Cl)c2)n1 is ____.
Result: 6.44

Ask: Fill in the blank: the reported pIC50 of C#CCSc1nc(Sc2nnnn2CCN(C)C)c(C#N)c(-c2cc(OC)c(OC)c(OC)c2)n1 is ____.
Result: 6.23

Ask: Fill in the blank: the reported pIC50 of C#CCSc1nc(Sc2nnnn2C)c(C#N)c(-c2ccc(Cl)cc2)n1 is ____.
Result: 7.11

Ask: Fill in the blank: the reported pIC50 of C#CCSc1nc(Sc2nnnn2CCN(C)C)c(C#N)c(-c2ccc(Cl)c(Cl)c2)n1 is ____.
Result: 6.41

Ask: Fill in the blank: the reported pIC50 of C#CCSc1nc(Sc2nc[nH]n2)c(C#N)c(-c2cc(OC)c(OC)c(OC)c2)n1 is ____.
Result: 5.91
